Test system: Nucleic Acid
Assay: Induction of DNA cleavage activity in Escherichia coli pBR322 assessed as supercoiled circular form after 10 mins by gel electrophoresis in presence of UV light
Type: nucleic-acid assay
Set-up: concentration or dose not given beside the values
parameterMeasured: Activity (%)
Give bare numbers, in %.

Solved cases (4 shown):
| sampleSmiles | parameterMeasured | unitLabel | observed |
| --- | --- | --- | --- |
| O=C(ON(C(=O)c1ccccc1)c1ccc(C(=O)c2ccccc2)cc1)c1ccccc1 | Activity | % | 13.2 |
| O=C(ON(C(=O)c1ccccc1)c1ccc(C(=O)c2ccccc2)cc1)c1ccc(F)cc1 | Activity | % | 37.1 |
| O=C(ON(C(=O)c1ccccc1)c1ccc(C(=O)c2ccccc2)cc1)c1ccc([N+](=O)[O-])cc1 | Activity | % | 56.6 |
| O=C(ON(C(=O)c1ccccc1)c1ccc(C(=O)c2ccccc2)cc1)c1ccc(Cl)cc1 | Activity | % | 65 |

Nucleic Acid Activity of `CC(=O)N(OC(=O)c1ccccc1)c1ccc(C(=O)c2ccccc2)cc1` is 7.83

====

Can you tell me Activity for the items I'm about to list?
Test system: Nucleic Acid
Test: Induction of DNA cleavage activity in Escherichia coli pBR322 assessed as supercoiled circular form after 10 mins by gel electrophoresis in presence of UV light
Assay type: nucleic-acid assay
Design: concentration or dose not given beside the values

Solved cases (4 shown):
| sampleSmiles | observed |
| --- | --- |
| COc1ccc(C(=O)ON(C(=O)c2ccccc2)c2ccc(C(=O)c3ccccc3)cc2)cc1OC | 11.2% |
| O=C(ON(C(=O)c1ccc([N+](=O)[O-])cc1)c1ccc(C(=O)c2ccccc2)cc1)c1ccccc1 | 63.7% |
| COc1ccc(C(=O)N(OC(=O)c2ccccc2)c2ccc(C(=O)c3ccccc3)cc2)cc1OC | 22.9% |
| O=C(ON(C(=O)c1ccc(F)cc1)c1ccc(C(=O)c2ccccc2)cc1)c1ccccc1 | 59.2% |

// sample `CC(=O)ON(C(=O)c1ccccc1)c1ccc(C(=O)c2ccccc2)cc1` , its Activity was 25.6%

====

Test system: Nucleic Acid
Experiment: Induction of DNA cleavage activity in Escherichia coli pBR322 assessed as relaxed circular form after 10 mins by gel electrophoresis in presence of UV light
Format: nucleic-acid assay
Parameters: concentration or dose not given beside the values
Can you tell me Activity for the items I'm about to list?
Please make sure the unit comes right after the number.

Solved cases (3 shown):
| sampleSmiles | Activity |
| --- | --- |
| O=C(ON(C(=O)c1ccccc1)c1ccc(C(=O)c2ccccc2)cc1)c1ccccc1 | 86.8% |
| CC(=O)ON(C(=O)c1ccccc1)c1ccc(C(=O)c2ccccc2)cc1 | 73.9% |
| CC(=O)N(OC(=O)c1ccccc1)c1ccc(C(=O)c2ccccc2)cc1 | 92.2% |

// sample `COc1ccc(C(=O)ON(C(=O)c2ccccc2)c2ccc(C(=O)c3ccccc3)cc2)cc1OC` , its Activity was 88.8%
